Biological target: Estrogen receptor (Homo sapiens) (UniProt P03372)
Sequence (P03372 whole entry, looked up): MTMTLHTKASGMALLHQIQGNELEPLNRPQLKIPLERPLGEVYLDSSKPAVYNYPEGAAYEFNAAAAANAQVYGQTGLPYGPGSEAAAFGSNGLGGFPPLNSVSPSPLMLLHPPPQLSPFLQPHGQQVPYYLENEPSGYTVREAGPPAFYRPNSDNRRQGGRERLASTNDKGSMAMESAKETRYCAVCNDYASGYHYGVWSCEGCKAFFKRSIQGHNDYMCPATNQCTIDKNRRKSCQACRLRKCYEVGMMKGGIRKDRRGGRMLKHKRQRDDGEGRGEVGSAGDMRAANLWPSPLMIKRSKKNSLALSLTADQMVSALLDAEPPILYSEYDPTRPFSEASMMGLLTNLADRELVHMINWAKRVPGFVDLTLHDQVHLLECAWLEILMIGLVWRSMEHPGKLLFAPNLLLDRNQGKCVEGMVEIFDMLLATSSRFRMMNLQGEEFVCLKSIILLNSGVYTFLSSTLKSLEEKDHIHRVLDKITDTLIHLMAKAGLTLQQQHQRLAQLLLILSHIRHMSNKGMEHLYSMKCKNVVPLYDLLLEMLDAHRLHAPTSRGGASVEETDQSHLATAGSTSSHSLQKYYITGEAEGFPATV
Assay: qHTS assay to identify small molecule antagonists of the estrogen receptor alpha (ER-alpha) signaling pathway (AID 743069)
Settings: HEK293 ER-alpha-UAS-bla, beta-lactamase ratio, antagonist mode; series mostly up to 69.4 µM
The source made the active and inactive calls. Calls come from the whole dose curve; as a rule, active = well fitted curve in the direction sought with a large enough effect in the signal ratio in the repeat runs (not every such curve was filed as active); inconclusive = weak or mixed curves, or effect the other way; inactive = no such curve, though single readings can be large or run the other way; the % refers to the signal ratio.
Use one of these outcomes when replying: active, inactive

# molecule, assayed.system, category.label
data = [
    ("Cc1c(Cl)c(=O)oc2cc(OP(=O)(OCCCl)OCCCl)ccc12", "Estrogen receptor (Homo sapiens) (UniProt P03372)", "inactive"),
    ("CC[C@H](C)[C@H]1O[C@]2(C=C[C@@H]1C)C[C@@H]1C[C@@H](C/C=C(\\C)[C@@H](O[C@H]3C[C@H](OC)[C@@H](O[C@H]4C[C@H](OC)[C@@H](O)[C@H](C)O4)[C@H](C)O3)[C@@H](C)/C=C/C=C3\\CO[C@@H]4[C@H](O)C(C)=C[C@@H](C(=O)O1)[C@]34O)O2", "Estrogen receptor (Homo sapiens) (UniProt P03372)", "active"),
    ("CCCN(CC)CC1COC2(CCC(C(C)(C)C)CC2)O1 (configuration not stated)", "Estrogen receptor (Homo sapiens) (UniProt P03372)", "inactive"),
    ("CS(=O)(=O)c1ccc(C(=O)C2C(=O)CCCC2=O)c([N+](=O)[O-])c1", "Estrogen receptor (Homo sapiens) (UniProt P03372)", "inactive"),
    ("C1CCC2CCCCC2C1 (configuration not stated)", "Estrogen receptor (Homo sapiens) (UniProt P03372)", "inactive"),
    ("CCOC(=O)OC1=C(c2cc(C)ccc2C)C(=O)NC12CCC(OC)CC2 (configuration not stated)", "Estrogen receptor (Homo sapiens) (UniProt P03372)", "inactive"),
    ("CC(C)OS(C)(=O)=O", "Estrogen receptor (Homo sapiens) (UniProt P03372)", "inactive"),
    ("CCC[CH2][Sn]([CH2]CCC)([CH2]CCC)[O]C(=O)c1ccccc1", "Estrogen receptor (Homo sapiens) (UniProt P03372)", "active"),
    ("CCOCCOC(C)=O", "Estrogen receptor (Homo sapiens) (UniProt P03372)", "inactive"),
    ("CNC(C)Cc1ccc2c(c1)OCO2 (configuration not stated)", "Estrogen receptor (Homo sapiens) (UniProt P03372)", "inactive"),
]

// return assay outcome for N#CCCSCCC#N
inactive

Please let me know the test result on file for CC(=O)Nc1ccc2c(c1)Cc1ccccc1-2 .
inactive

###

Assay: qHTS assay to identify small molecule antagonists of the estrogen related receptor signaling pathway with the pleiotropic PPARgamma coactivator (PGC) from Tox21 10K library - cell viability counter screen (AID 1224840); note: nearly all actives have a fitted effect of over 40% in size
Settings: PGC/ERR reporter cells viability, CellTiter-Fluor, 17.5 h; series mostly up to 92.4 µM
Results filed as inconclusive are left out. Active and inactive are the calls of the source. Calls come from the whole dose curve; as a rule, active = well fitted cell-killing curve with a large enough effect in the repeat runs (not every such curve was filed as active); inconclusive = weak or mixed curves, or effect the other way; inactive = no such curve, though single readings can be large or run the other way.
Use one of these outcomes when replying: active, inactive

Consider the following illustrative entries.
# molecule, category.label
records = [
    ("CC(C)(C)c1cc([N+](=O)[O-])cc(C(C)(C)C)c1O", "active"),
    ("CCOP(=S)(OCC)OC(Cl)C(Cl)(Cl)Cl (stereo not drawn)", "inactive"),
    ("CCCCCCCCCCCCCC[P+](CCCCCC)(CCCCCC)CCCCCC (tested in a mixture with another compound)", "active"),
    ("CCOP(=S)(OCC)SCS(=O)(=O)C(C)(C)C", "inactive"),
    ("ClCc1ccccc1CCl", "inactive"),
    ("N#Cc1ccccc1N", "inactive"),
    ("COS(=O)(=O)c1ccc(C)cc1", "inactive"),
]

Which outcome was entered for the molecule CC(=[OH+])/C=C(/C)[O-].CC(=[OH+])/C=C(\C)[O-].CC(=[OH+])/C=C(\C)[O-].[Fe] in this test?
inactive

###

Test: qHTS assay to identify small molecule antagonists of the sonic hedgehog signaling (Shh) pathway - cell viability counter screen (AID 1259367); note: nearly all actives have a fitted effect of over 55% in size
Conditions: NIH/3T3 Gli1-Luc viability, CellTiter-Fluor, 24 h; series mostly up to 92.4 µM
Inconclusive results are not listed. Activity calls are given as the source filed them. Calls follow the shape of the dose curve; as a rule, active = well fitted cell-killing curve with a large enough effect in the repeat runs; inconclusive = weak or mixed curves, or effect the other way; inactive = no such curve, though single readings can be large or run the other way.
Return exactly one item of active, inactive

Observe how each entry below is paired with its result.
# structure.string, category.label
records = [
    ("CC(=O)c1cc(C(C)(C)C)cc2c1CCC2(C)C", "inactive"),
    ("Cc1cc(C)cc(OP(=O)(Oc2cc(C)cc(C)c2)Oc2cc(C)cc(C)c2)c1", "inactive"),
]

Write down the call the test reported for this compound. Item: CC(C)(C)OO
inactive

Tell me the assay call for C=CC(=O)N(C)C please.
inactive

Outcome logged for CC(=O)[O-].CC(=O)[O-].[Hg+2] in this assay:
active

Each compound tested received a call. Report the one for COc1ccc(OC)c(C=O)c1 .
inactive

Hi, sorry to bother you, what did the test record for O=C1C=CC(=O)c2ccccc21 ?
active

###

Target: Cytochrome P450 2C19 (Homo sapiens) (UniProt P33261)
Sequence (P33261 whole entry, looked up): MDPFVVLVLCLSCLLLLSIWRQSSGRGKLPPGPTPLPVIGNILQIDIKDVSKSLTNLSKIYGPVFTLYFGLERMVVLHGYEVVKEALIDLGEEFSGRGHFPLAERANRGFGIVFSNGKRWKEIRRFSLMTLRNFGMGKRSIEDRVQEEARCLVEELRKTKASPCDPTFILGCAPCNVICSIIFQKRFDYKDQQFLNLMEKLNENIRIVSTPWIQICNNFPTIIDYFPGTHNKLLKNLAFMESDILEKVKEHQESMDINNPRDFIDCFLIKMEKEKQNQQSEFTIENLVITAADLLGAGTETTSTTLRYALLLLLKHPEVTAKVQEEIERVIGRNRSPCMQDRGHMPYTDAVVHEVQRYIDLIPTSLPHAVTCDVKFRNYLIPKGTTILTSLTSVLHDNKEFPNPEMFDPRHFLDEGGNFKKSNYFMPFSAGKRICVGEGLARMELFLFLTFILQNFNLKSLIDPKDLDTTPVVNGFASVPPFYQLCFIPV
Experiment: Cytochrome P450 Family 2 Subfamily C Member 19 (CYP2C19) small molecule antagonists: luciferase reporter qHTS assay (AID 1671197); note: nearly all actives have a fitted effect of over 65% in size
Settings: P450-Glo CYP2C19 enzyme, luciferin luminescence, 1 h; series mostly up to 115 µM
Inconclusive results are not listed. Calls of active or inactive are those of the source. Calls come from the whole dose curve; as a rule, active = well fitted inhibition curve with a large enough effect in the repeat runs; inconclusive = weak or mixed curves; inactive = no such curve, though single readings can be large or run the other way.
Write down the outcome that applies. Available outcomes: active, inactive

Study these solved cases before continuing.
# compound, category.label
records = [
    ("COc1ccc(OC)c(CC(C)N)c1 (stereo unspecified)", "inactive"),
    ("CC(C)(C)c1cc([N+](=O)[O-])cc(C(C)(C)C)c1O", "active"),
    ("CCCN(CCC)c1c([N+](=O)[O-])cc(S(N)(=O)=O)cc1[N+](=O)[O-]", "active"),
    ("C[As+](C)(C)CC(=O)[O-]", "inactive"),
    ("CC1(C)C(/C=C(\\Cl)C(F)(F)F)C1C(=O)OC(C#N)c1cccc(Oc2ccccc2)c1 (stereo unspecified)", "active"),
]

For this compound, state the assay outcome: C=CC(=O)N(C)C
inactive

Per the records of this test, what outcome belongs to Oc1c(Br)c(Br)c(Br)c(Br)c1Br ?
inactive

Record lookup: outcome of this test for CC(=O)C(Cl)(Cl)Cl ?
active

// param item: CCOC(=O)CC(=O)CCl ; yields the recorded call
inactive

Answer briefly: the call reported for COS(=O)(=O)c1ccc(C)cc1 in this assay.
inactive

###

Assay: Caspase-3/7 induction in CHO-K1 cells by small molecules, qHTS cell viability counter screen (AID 1346979); note: nearly all actives have a fitted effect of over 35% in size
Settings: CellTiter-Fluor fluorescence, 17 h; series mostly up to 92.4 µM
Results filed as inconclusive are left out. Calls of active or inactive are those of the source. The call rests on the fitted dose curve; in most records, active means well fitted cell-killing curve with a large enough effect in the repeat runs; inconclusive means weak or mixed curves, or effect the other way; inactive means no such curve, though single readings can be large or run the other way.
Mark one answer only. Choices: t = active, f = inactive

Recorded results for 8 molecules are shown here.
# molecule, category.label
data = [
    ("C[C@@H]1O[C@@H](O[C@H]2C[C@@H](O)[C@]3(CO)[C@H]4[C@H](O)C[C@]5(C)[C@@H](C6=CC(=O)OC6)CC[C@]5(O)[C@@H]4CC[C@]3(O)C2)[C@H](O)[C@H](O)[C@H]1O", "f"),
    ("CC(O)C#N (configuration not stated)", "f"),
    ("O=C(Cl)c1ccc(Cl)cc1", "f"),
    ("Oc1ccc(C2(c3ccc(O)cc3)CCCCC2)cc1", "t"),
    ("CCCCCCCCCCCCCCC(Br)C(=O)O (configuration not stated)", "f"),
    ("O=C(O)c1cc[c]([Hg][Cl])cc1", "t"),
    ("CC1(C)CN=C(NN=C(/C=C/c2ccc(C(F)(F)F)cc2)/C=C/c2ccc(C(F)(F)F)cc2)NC1", "t"),
    ("ClCc1ccccc1CCl", "t"),
]

In this assay, the call recorded for CCCN(CC)CC1COC2(CCC(C(C)(C)C)CC2)O1 (configuration not stated) was what?
f

Lab log entry: CCOP(=S)(OCC)OC(Cl)C(Cl)(Cl)Cl (configuration not stated) — outcome as called in the assay?
f

Can you look up the reported call for CC(=O)[O-].[Tl+] for me?
t

State the result this test recorded for NC(=O)c1ccc(N)nc1 .
t

###

Experiment: qHTS assay to test for compound auto fluorescence at 590 nm (red) in HepG2 cell free culture (AID 720684); note: % is set by controls: 0 for no effect and ±100 for the full control effect
Conditions: cell-free medium autofluorescence, red 540/590 nm; series mostly up to 91.3 µM
Active and inactive are the calls of the source. The call rests on the fitted dose curve; in most records, active means well fitted curve in the direction sought with a large enough effect in the repeat runs; inconclusive means weak or mixed curves; inactive means flat fitted curve, though single readings scatter.

# compound, fluorescence, % of Rose Bengal
rows = [
    ("C[C@@H]1CC[C@@]2(OC1)O[C@H]1[C@@H](O)[C@H]3[C@@H]4CC[C@H]5C[C@@H](O[C@@H]6O[C@H](CO)[C@H](O[C@@H]7O[C@H](CO)[C@@H](O)[C@H](O[C@@H]8OC[C@@H](O)[C@H](O)[C@H]8O)[C@H]7O[C@@H]7O[C@H](CO)[C@@H](O)[C@H](O[C@@H]8O[C@H](CO)[C@@H](O)[C@H](O)[C@H]8O)[C@H]7O)[C@H](O)[C@H]6O)[C@H](O)C[C@]5(C)[C@H]4CC[C@]3(C)[C@H]1[C@@H]2C", "inactive"),
    ("N#CCCC(Br)(C#N)CBr (stereo not drawn)", "inactive"),
    ("C[C@@H]1O[C@@H](O[C@@H]2C=C3CC[C@@H]4[C@H](CC[C@]5(C)[C@@H](c6ccc(=O)oc6)CC[C@]45O)[C@@]3(C)CC2)[C@H](O)[C@H](O)[C@H]1O", "-0.272% [at 18.6 µM] (inactive)"),
]
